We begin with a simple list: items and their reported pIC50.
Biological target: CDK2/Cyclin E (Homo sapiens, UniProt P24941)
Assay: CDK2/Cyclin E biochemical phosphorylation assay (Caliper mobility shift)
Settings: apparent IC50; 1.0 mM ATP or ATP Km; 1.25 nM enzyme; 25° C.; read-out: CDK2/cyclin E1 IC50
pIC50: −log10 of the molar value.

Solved cases below.
Molecule	pIC50
FC[C@@H](c1ccccc1)n1ncc2ncc(Nc3cc(OC(F)F)[nH]n3)nc21 (single isomer, unassigned)	≥ 8.00
Fc1ccc(Cn2ncc3ncc(Nc4cc(OC(F)F)[nH]n4)nc32)cc1	7.70 to 8.00
FC(F)Oc1cc(Nc2cnc3cnn(CCc4cn[nH]c4)c3n2)n[nH]1	≥ 8.00

# pIC50 (molecule: C[C@@H]1C[C@H](Cn2ncc3ncc(Nc4cc(OC(F)F)[nH]n4)nc32)C[C@H](C)O1 ) is ≥ 8.00

# pIC50 (molecule: COc1cc(Nc2cnc3cnn([C@@H](C)c4cccnc4)c3n2)n[nH]1 ) is ≥ 8.00

# pIC50 (molecule: FC(F)Oc1cc(Nc2cnc3cnn(CC4CC4)c3n2)n[nH]1 ) is ≥ 8.00

# pIC50 (molecule: FC(F)Oc1cc(Nc2cnc3cnn([C@H](c4ccccn4)C4CC4)c3n2)n[nH]1 ) is 7.52 to 7.70

# pIC50 (molecule: FC[C@H](c1ccccn1)n1ncc2ncc(Nc3cc(OC(F)F)[nH]n3)nc21 (single isomer, unassigned) ) is ≥ 8.00

# pIC50 (molecule: O[C@H]1C[C@H](n2ncc3ncc(Nc4cc(OC(F)F)[nH]n4)nc32)C1 (single isomer, unassigned) [Example 146] ) is 7.52 to 7.70

# pIC50 (molecule: COc1cc(Nc2cnc3cnn(Cc4ccc(F)nc4)c3n2)n[nH]1 ) is 7.52 to 7.70

# pIC50 (molecule: FC(F)Oc1cc(Nc2cnc3cnn(Cc4ccccc4)c3n2)n[nH]1 ) is 7.52 to 7.70

# pIC50 (molecule: FC(F)Oc1cc(Nc2cnc3cnn([C@H](c4ccccn4)C(F)F)c3n2)n[nH]1 (single isomer, unassigned) [Example 150] ) is 7.70 to 8.00

# pIC50 (molecule: FC(F)Oc1cc(Nc2cnc3cnn(CC4CCOCC4)c3n2)n[nH]1 ) is ≥ 8.00

# pIC50 (molecule: FC(F)Oc1cc(Nc2cnc3cnn(C[C@H]4COCCO4)c3n2)n[nH]1 ) is ≥ 8.00

# pIC50 (molecule: C[C@@H](c1cccnc1)n1ncc2ncc(Nc3cc(OC(F)F)[nH]n3)nc21 ) is ≥ 8.00

# pIC50 (molecule: O=C1C[C@@H](Cn2ncc3ncc(Nc4cc(OC(F)F)[nH]n4)nc32)CN1 (single isomer, unassigned) ) is 7.52 to 7.70
